Hey, just so you know, these numbers are from patent USRE50528E1.

measured.target: EGFR mutant L858R/T790M (Homo sapiens, UniProt P00533, L858R/T790M)
Construct: truncated human JAK3, EGFR mutants such as del E746-A750; purchased Carna Biosciences
Sequence (P00533 669-1210 T790M/L858R limits assumed): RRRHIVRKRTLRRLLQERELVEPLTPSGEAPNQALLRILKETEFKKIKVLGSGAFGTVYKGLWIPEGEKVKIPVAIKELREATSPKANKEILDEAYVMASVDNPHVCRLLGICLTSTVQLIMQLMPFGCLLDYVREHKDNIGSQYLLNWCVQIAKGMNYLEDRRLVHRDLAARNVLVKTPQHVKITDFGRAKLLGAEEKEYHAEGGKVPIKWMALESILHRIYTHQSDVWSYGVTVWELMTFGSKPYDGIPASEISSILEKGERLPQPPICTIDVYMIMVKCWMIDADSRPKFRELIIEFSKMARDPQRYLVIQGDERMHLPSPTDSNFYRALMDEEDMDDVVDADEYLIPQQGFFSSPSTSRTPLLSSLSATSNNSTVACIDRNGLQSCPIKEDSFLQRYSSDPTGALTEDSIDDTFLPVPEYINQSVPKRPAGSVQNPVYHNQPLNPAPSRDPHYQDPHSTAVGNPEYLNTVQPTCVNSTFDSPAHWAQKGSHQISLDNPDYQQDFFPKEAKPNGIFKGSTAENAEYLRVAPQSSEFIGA
experiment.summary: Kinase inhibition assay, EGFR L858R/T790M
Type: biochemical
reported.conditions: read-out: EGFR mutants L858R/T790M
Property: IC50; scope: individual compounds

| compound | measurement.name | observed.value |
| --- | --- | --- |
| C=CC(=O)Nc1cc(Nc2nccc(-n3ccc(-c4ccccc4)n3)n2)c(OC)cc1N1CCN(C)CC1 [Compound 85] | IC50 | 20 to 200 nM |

Write down the reported IC50 (system: EGFR mutant L858R/T790M (Homo sapiens, UniProt P00533, L858R/T790M)) of C=CC(=O)Nc1cc(Nc2nccc(-n3cc(CN(C)C)c(C4CC4)n3)n2)c(OC)cc1N(C)CCOC [Compound 106]
< 20 nM

Write down the reported IC50 (system: EGFR mutant L858R/T790M (Homo sapiens, UniProt P00533, L858R/T790M)) of C=CC(=O)Nc1cc(Nc2nccc(-n3cc(CN4CC(O)C4)c(C)n3)n2)c(OC)cc1N1CCOCC1 [Compound 15]
< 20 nM

Write down the reported IC50 (system: EGFR mutant L858R/T790M (Homo sapiens, UniProt P00533, L858R/T790M)) of C=CC(=O)Nc1cc(Nc2nccc(-n3cc(CN(C)C)c(C)n3)n2)c(OC)cc1N(C)C [Compound 71]
< 20 nM

###

measured.target: EGFR mutant L858R (Homo sapiens, UniProt P00533, L858R)
Construct: truncated human JAK3, EGFR mutants such as del E746-A750; purchased Carna Biosciences
Sequence (P00533 669-1210 L858R limits assumed): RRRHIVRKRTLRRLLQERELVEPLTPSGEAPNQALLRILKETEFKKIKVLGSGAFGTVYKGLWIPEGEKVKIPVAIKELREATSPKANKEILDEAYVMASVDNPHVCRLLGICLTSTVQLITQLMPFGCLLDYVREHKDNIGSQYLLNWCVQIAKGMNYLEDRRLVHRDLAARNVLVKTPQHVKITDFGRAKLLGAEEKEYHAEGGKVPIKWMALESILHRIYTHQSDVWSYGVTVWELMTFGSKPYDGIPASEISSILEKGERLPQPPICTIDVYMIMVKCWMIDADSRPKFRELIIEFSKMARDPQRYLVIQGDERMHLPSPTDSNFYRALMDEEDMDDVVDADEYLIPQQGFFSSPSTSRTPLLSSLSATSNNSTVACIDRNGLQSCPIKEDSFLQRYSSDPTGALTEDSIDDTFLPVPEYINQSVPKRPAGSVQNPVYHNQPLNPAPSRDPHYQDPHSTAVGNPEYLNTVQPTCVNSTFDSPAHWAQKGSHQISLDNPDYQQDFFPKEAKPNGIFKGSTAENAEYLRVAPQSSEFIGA
experiment.summary: Kinase inhibition assay, EGFR L858R;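 also: truncated human EGFR L858R kinase with compound preincubation, ULight-PolyGT peptide phosphorylation read by Europium-antibody Lance detection, IC50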
Assay type: biochemical
reported.conditions: read-out: EGFR mutants L858R
measurement.name: IC50

Hello, please tell me recorded IC50 for this one: C=CC(=O)Nc1cc(Nc2nccc(-n3cc(CN(C)C)c(C(C)(C)C)n3)n2)c(OC)cc1N1CCOCC1 [Compound 86]
< 20 nM

Hello, please tell me recorded IC50 for this one: C=CC(=O)Nc1cc(Nc2ncc(C)c(-n3cc(CN4CCC4)cn3)n2)c(OC)cc1N1CCCN(C)CC1 [Compound 41]
< 20 nM

###

Property: IC50; scope: individual molecules
measured.target: EGFR mutant L858R/T790M (Homo sapiens, UniProt P00533, L858R/T790M)
Construct: truncated human JAK3, EGFR mutants such as del E746-A750; purchased Carna Biosciences
experiment.summary: Kinase inhibition assay, EGFR L858R/T790M;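 also: truncated human enzyme preincubated two hours with compound, then one hour with one millimolar ATP and ULight-PolyGT peptide, Europium-labeled antibody detection, IC50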
Assay type: biochemical
reported.conditions: read-out: EGFR mutants L858R/T790M

Here is how some molecules turned out for IC50.
| smiles.notation | IC50 |
| --- | --- |
| C=CC(=O)Nc1cc(Nc2ncc(C)c(-n3cc(CN4CC[C@H](O)C4)c(C)n3)n2)c(OC)cc1N1CCOCC1 | < 20 nM |
| C=CC(=O)Nc1cc(Nc2nccc(-n3cc(CN(C)CC)c(C)n3)n2)c(OC)cc1N1CCOCC1 | < 20 nM |
| C=CC(=O)Nc1cc(Nc2ncc(F)c(-n3cc(CN4CCC4)c(-c4ccoc4)c3)n2)c(OC)cc1N1CCOCC1 | < 20 nM |
| C=CC(=O)Nc1cc(Nc2nccc(-n3cc(CN4CCC4)c(C(C)(C)C)n3)n2)c(OC)cc1N(C)C1COC1 | < 20 nM |
| C=CC(=O)Nc1cc(Nc2nccc(-n3cc(CN4CCC4)c(-c4ccc(F)cc4)n3)n2)c(OC)cc1N1CCOCC1 | 20 to 200 nM |

Hello, please tell me recorded IC50 for this one: C=CC(=O)Nc1cc(Nc2nccc(-n3cc(CN(C)C)c(-c4cc(C)ccc4C)n3)n2)c(OC)cc1N1CCOCC1
< 20 nM

Hello, please tell me recorded IC50 for this one: C=CC(=O)Nc1cc(Nc2nccc(-n3nc(C)c(CN4CCC4)c3C)n2)c(OC)cc1N1CCOCC1
20 to 200 nM

Hello, please tell me recorded IC50 for this one: C=CC(=O)Nc1cc(Nc2ncc(C)c(-n3cc(CN4CC(O)C4)c(C)n3)n2)c(OC)cc1N1CCN(C)CC1
< 20 nM
